The reader will find reported Ki values listed item by item below.
- target: cloned human CCR8 receptor stably expressed in L1.2 cells (Homo sapiens)
- Construct: expressed in transfected cells
- assay_summary: whole cell binding screen: inhibition of biotinylated human I309 binding to CCR8 (FMAT 8100 HTS)
- setup_conditions: L1.2/hCCR8 cells, biotinylated human I-309, 10 point concentration response starting at 10 μM; read-out: Ki of compounds to inhibit I-309 binding to CCR8

Observed Ki, cloned human CCR8 receptor stably expressed in L1.2 cells (Homo sapiens), CCCC(=O)N1CCC(NS(=O)(=O)c2cccc3c(C(=O)Nc4ccccc4C)cccc23)CC1 : < 500 nM

----------
- target: cloned human CCR8 receptor stably expressed in L1.2 cells (Homo sapiens)
- Construct: expressed in transfected cells
- assay_summary: whole cell binding screen: inhibition of biotinylated human I309 binding to CCR8 (FMAT 8100 HTS)
- setup_conditions: Ki of compounds to inhibit I-309 binding to CCR8, L1.2/hCCR8 cells, biotinylated human I-309, 10 point concentration response starting at 10 μM
pKi: −log10 of the molar value.
readout_name: pKi

Worked examples, 5 compounds total:
- COCC(=O)N1CCC(NS(=O)(=O)c2ccc(NC(=O)c3ccccc3C)c3ccccc23)CC1 [Compound C-56]: > 6.30
- CCOC(=O)N1CCC(NS(=O)(=O)c2ccc3cccc(NC(=O)c4ccccc4)c3c2)CC1 [Compound H-51]: > 4.52
- CCCC(=O)N1CCC(NS(=O)(=O)c2ccc(NC(=O)C3CCCCC3)c3ccccc23)CC1 [Compound D-16]: > 6.30
- O=C(Nc1ccc(S(=O)(=O)NC2CCNCC2)c2ccccc12)c1ccccc1 [Compound C-1]: > 6.00
- COc1ccc(NS(=O)(=O)c2ccc(N3C(=O)c4ccccc4C3=O)c3ccccc23)cc1 [Compound A-2]: > 4.52

Briefly, pKi measured for CCC(=O)N1CCC(NS(=O)(=O)c2ccc(NC(=O)c3ccccc3C)c3ccccc23)CC1 [Compound C-50] : > 6.30

The reported pKi of the compound Cc1ccccc1C(=O)Nc1ccc(S(=O)(=O)NC2CCN(C(=O)[C@@H]3CCCN3)CC2)c2ccccc12 [Compound C-125] was > 6.30

The recorded pKi for CCCC(=O)N1CCC(NS(=O)(=O)c2ccc(NC(=O)c3ccccc3C)c3ccccc23)CC1 [Compound C-35] is > 6.30

----------
- target: cloned human CCR8 receptor stably expressed in L1.2 cells (Homo sapiens, UniProt P51685)
- Construct: expressed in transfected cells
- Sequence (P51685 whole entry): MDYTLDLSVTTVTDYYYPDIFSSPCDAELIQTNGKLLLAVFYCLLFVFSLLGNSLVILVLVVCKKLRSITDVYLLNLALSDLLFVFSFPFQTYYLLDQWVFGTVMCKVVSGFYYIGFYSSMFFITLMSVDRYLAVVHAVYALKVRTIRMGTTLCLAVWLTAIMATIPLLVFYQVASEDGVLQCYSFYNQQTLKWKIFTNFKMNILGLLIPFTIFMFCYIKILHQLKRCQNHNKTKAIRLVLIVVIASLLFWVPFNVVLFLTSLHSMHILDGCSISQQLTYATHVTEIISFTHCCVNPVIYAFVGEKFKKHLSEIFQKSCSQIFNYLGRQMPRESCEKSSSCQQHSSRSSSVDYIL
- assay_summary: whole cell binding screen: inhibition of biotinylated human I309 binding to CCR8 (FMAT 8100 HTS)
- setup_conditions: L1.2/hCCR8 cells, biotinylated human I-309, 10 point concentration response starting at 10 μM; read-out: Ki of compounds to inhibit I-309 binding to CCR8
Ki values, listed per item

• O=C(Nc1cc(S(=O)(=O)NC2CCCCC2)cc2c1CCCC2)c1ccccc1 = < 500 nM

Now, please, on to the next compound.
Briefly, Ki measured for CCCC(=O)N1CCC(NS(=O)(=O)c2ccc(C(=O)Nc3cccc(C)c3)c3ccccc23)CC1 : < 500 nM

----------
- target: cloned human CCR8 receptor stably expressed in L1.2 cells (Homo sapiens)
- Construct: expressed in transfected cells
- assay_summary: whole cell binding screen: inhibition of biotinylated human I309 binding to CCR8 (FMAT 8100 HTS)
- setup_conditions: L1.2/hCCR8 cells, biotinylated human I-309, 10 point concentration response starting at 10 μM; read-out: Ki of compounds to inhibit I-309 binding to CCR8
readout_name: Ki

These recorded examples may help you get a feel for the data.
* CCOC(=O)N1CCC(NS(=O)(=O)c2cccc3c(C(=O)NC4CCCCC4)cccc23)CC1 | < 1000 nM
* Cc1ccccc1C(=O)Nc1ccc(S(=O)(=O)N[C@@H]2[C@H](C)CNC[C@@H]2C)c2ccccc12 [Compound J-53] | < 5000 nM
* CCCC(=O)N1CCCC(NS(=O)(=O)c2ccc(NC(=O)c3ccccc3C)c3ccccc23)C1 (racemic) | < 500 nM
* CCOC(=O)N1CCC(NS(=O)(=O)c2ccc(CNCCc3ccccc3)c3ccccc23)CC1 | < 500 nM

GET /value?item= CCCC(=O)N1CCC(NS(=O)(=O)c2ccc(NC(=O)c3ccccc3C)c3c2CCC3)CC1 &field=Ki returns < 500 nM

Query Cc1ccccc1C(=O)Nc1ccc(S(=O)(=O)N[C@H]2CCN(C(=O)N(C)C)C[C@H]2C)c2c1CCCC2 (racemic) yields Ki of < 500 nM

Sample CCOC(=O)N1CCC(NS(=O)(=O)c2cc3c(c(NC(=O)C4CCCCC4)c2)CCCC3)CC1 ; Ki observed: < 1000 nM

Reported Ki ( CCOC(=O)N1CCC(NS(=O)(=O)c2ccc(NC(=O)c3cccc(C)c3)c3ccccc23)CC1 ) = < 1000 nM

In plain terms, Cc1ccccc1C(=O)Nc1ccc(S(=O)(=O)NC2CCN(c3nc4ccccc4o3)CC2)c2ccccc12 has a documented Ki of < 500 nM

// CCOC(=O)N1CCC(NS(=O)(=O)c2ccc(CNCc3ccncc3)c3ccccc23)CC1 : Ki value = < 1000 nM

Input Cc1ccccc1C(=O)Nc1ccc(S(=O)(=O)N[C@H]2CCN(C(=O)[C@@H](C)N)C[C@H]2C)c2ccccc12 . Output Ki: < 500 nM

// Ki value for Cc1ccccc1C(=O)Nc1ccc(S(=O)(=O)N[C@@H]2[C@H](C)CN(C(=O)N(C)C)C[C@@H]2C)c2ccccc12 : < 1000 nM

CCCC(=O)N1CCC(NS(=O)(=O)c2ccc(NC(=O)C3CCOCC3)c3ccccc23)CC1 has a reported Ki of < 500 nM

Entry CC[C@H]1CN(C(=O)[C@@H]2CCCN2)CC[C@@H]1NS(=O)(=O)c1ccc(NC(=O)c2ccccc2C)c2ccccc12 ; Ki = < 500 nM

Notebook: CCOC(=O)N1C[C@@H](C)[C@@H](NS(=O)(=O)c2ccc(NC(=O)c3ccccc3C)c3ccccc23)[C@@H](C)C1 , Ki read as < 1000 nM

Reported Ki for COc1ccc(NS(=O)(=O)c2ccc(NC(=S)Nc3ccccc3)c3ccccc23)cc1 was < 30000 nM

# Ki (compound: CCOC(=O)N1CCC(NS(=O)(=O)c2ccc(CNCc3cccnc3)c3ccccc23)CC1 ) is < 500 nM

Ki in this record for CCOC(=O)N1C[C@H](C)C(NS(=O)(=O)c2ccc(NC(=O)c3ccccc3C)c3ccccc23)[C@@H](C)C1 (racemic) : < 500 nM

# Ki (compound: CCOC(=O)N1CCC(NS(=O)(=O)c2cccc3c(C(=O)NC4CCCCC4C)cccc23)CC1 (racemic) ) is < 500 nM
